targetOrSystem: ERK1 (Homo sapiens)
Construct: purchased Jubilant Biosys
Sequence (P27361 whole entry): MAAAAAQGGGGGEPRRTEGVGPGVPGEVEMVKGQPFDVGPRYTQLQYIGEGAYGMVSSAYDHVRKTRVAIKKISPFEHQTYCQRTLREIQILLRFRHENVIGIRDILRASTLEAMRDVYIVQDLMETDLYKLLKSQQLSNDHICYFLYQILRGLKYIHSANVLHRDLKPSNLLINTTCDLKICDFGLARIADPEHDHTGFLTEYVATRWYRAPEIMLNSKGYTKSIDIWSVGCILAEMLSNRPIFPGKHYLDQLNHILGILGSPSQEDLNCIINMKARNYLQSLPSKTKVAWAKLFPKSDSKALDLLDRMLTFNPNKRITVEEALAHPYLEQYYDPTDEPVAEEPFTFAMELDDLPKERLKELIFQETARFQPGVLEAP
protocolDetails: ERK1 HTRF (biochemical) assay
cond: HTRF
pIC50: −log10 of the molar value.
Collected pIC50 values appear next to each entry.

O=C(Nc1cnn(-c2ccnc(Nc3ccccc3)n2)c1)N[C@H](CO)c1cccc(Cl)c1 [Compound 12] = > 7.30

Measured pIC50 of Cc1cnc(NC2CCOCC2)nc1-n1cnc(C(=O)N[C@@H](CN)c2cccc(Cl)c2)c1 (single isomer, unassigned) [Compound 225b] : > 7.30

Measured pIC50 of Cc1cnc(Nc2ccc(F)cc2Cl)cc1-n1cnc(C(=O)NC(CO)c2ccccc2)c1 (centres unmarked) [Compound 85] : 6.30 to 7.00

Measured pIC50 of Cc1cnc(Nc2ccc3c(c2)OCO3)nc1-n1ccc(C(=O)NC(CO)c2cccnc2)c1 (centres unmarked) [Compound 103] : 6.30 to 7.00

Measured pIC50 of Cc1cnc(Nc2ccc(F)cc2)nc1-n1cnc(C(=O)N[C@H](CN)c2cccc(Cl)c2)c1 [Compound 248] : > 7.30

Measured pIC50 of O=C(NC(CO)c1ccccc1)c1ccn(-c2nc(Nc3ccccc3Cl)ncc2F)c1 (centres unmarked) [Compound 67] : > 7.30

Measured pIC50 of Cc1cnc(Nc2ccccc2Cl)nc1-n1cc(NC(=O)N[C@H](CO)c2cccc(Cl)c2)cn1 [Compound 2] : > 7.30

Measured pIC50 of Cc1cnc(NC2CC2)nc1-n1cc(NC(=O)N[C@H](CO)c2cccc(Cl)c2)cn1 [Compound 3] : 7.00 to 7.30

* * *

targetOrSystem: ERK1 (Homo sapiens)
Construct: purchased Jubilant Biosys
protocolDetails: ERK1 HTRF (biochemical) assay
cond: HTRF
Experimental: ERK1 and ERK2 HTRF (Biochemical) Assays These assays employed a homogeneous time resolved fluorescence (HTRF) technique. […] The plate was incubated at room temperature for 60 min with shaking. […] The IC50 values (half maximal inhibitory concentration values) were subsequently determined using a sigmoidal dose-response curve (variable slope) in GraphPad Prism® 5 software.
attributeMeasured: IC50

Value sought: IC50, system ERK1 (Homo sapiens), item Cc1cnc(Nc2ccc3c(c2)OCO3)nc1-n1cnc(C(=O)NC(CN)c2cc(F)cc(Cl)c2)c1 (stereo not drawn) [Example 269] . Result: < 50 nM

Value sought: IC50, system ERK1 (Homo sapiens), item CC[C@@H](CO)Nc1ncc(C)c(-n2ccc(C(=O)N[C@@H](CO)c3cccc(Cl)c3)c2)n1 [Compound 218] . Result: 100 to 500 nM

Value sought: IC50, system ERK1 (Homo sapiens), item Cc1cnc(Nc2ccc3[nH]ncc3c2)nc1-n1ccc(C(=O)NC(CO)c2ccccc2)c1 (stereo not drawn) [Compound 140] . Result: < 50 nM

Value sought: IC50, system ERK1 (Homo sapiens), item COc1cc(F)ccc1Nc1ncc(C)c(-n2ccc(C(=O)NC(CO)c3cccc(Cl)c3)c2)n1 (stereo not drawn) [Compound 142] . Result: < 50 nM

Value sought: IC50, system ERK1 (Homo sapiens), item Cc1cnc(NC2CCC(F)(F)CC2)nc1-n1cnc(C(=O)N[C@H](CN)c2cccc(Cl)c2)c1 [Example 286] . Result: < 50 nM

Value sought: IC50, system ERK1 (Homo sapiens), item Cc1cnc(Nc2ccc3c(c2)OC(F)(F)O3)nc1-n1ccc(C(=O)NC(CO)c2ccccc2)c1 (stereo not drawn) [Compound 63] . Result: < 50 nM

Value sought: IC50, system ERK1 (Homo sapiens), item Cc1cnc(NC2CCOCC2)nc1-n1cnc(C(=O)NC(CN)c2cccc(Cl)c2)c1 (racemic) [Compound 225] . Result: < 50 nM

Value sought: IC50, system ERK1 (Homo sapiens), item COc1cc(Nc2ncc(C)c(-n3ccc(C(=O)N[C@H](CO)c4ccc(F)c(Cl)c4)c3)n2)cc(OC)c1OC [Compound 126] . Result: < 50 nM

Value sought: IC50, system ERK1 (Homo sapiens), item Cc1cnc(Nc2ccc3c(c2)OCCO3)nc1-n1ccc(C(=O)NC(CO)c2cccc(Cl)c2)c1 (stereo not drawn) [Compound 139] . Result: < 50 nM

Value sought: IC50, system ERK1 (Homo sapiens), item Cc1cnc(Nc2ccc3c(c2)OC(C)(C)O3)nc1-n1ccc(C(=O)NC(CO)c2cccc(Cl)c2)c1 (stereo not drawn) [Compound 96] . Result: < 50 nM

Value sought: IC50, system ERK1 (Homo sapiens), item Cc1cnc(NC2CC(F)(F)C2)nc1-n1cnc(C(=O)NCc2cccc(Cl)c2CO)c1 [Example 273] . Result: < 50 nM

Value sought: IC50, system ERK1 (Homo sapiens), item Cc1cnc(Nc2ccc3c(c2)CCO3)nc1-n1ccc(C(=O)NC(CO)c2ccccc2)c1 (stereo not drawn) [Compound 138] . Result: < 50 nM
